system: U2OS; assay: Multiplex assay against U2OS; format: toxicity, cell-based; details: human, 12 h, 1 µM, compound concentration 1 uM, replicate 2
measurement-kind: Population Mitotic Cells (%)
Respond with the bare value in %.

Ask: Please indicate recorded Population Mitotic Cells (%) of `Cn1cc(-c2[nH]c3cc(NC(=O)[C@H](N)C4CCCCC4)cc4c3c2C=NNC4=O)cn1` measured with U2OS.
Result: 66

Ask: Please indicate recorded Population Mitotic Cells (%) of C[C@@H](NCCCc1cccc(C(F)(F)F)c1)c1cccc2ccccc12.Cl [CINACALCET HYDROCHLORIDE] measured with U2OS.
Result: 66

---

system: U2OS; assay: Incucyte cell viability with U2OS; assay type: toxicity, cell-based; settings: human, 0 h, 10 µM, compound concentration 10 uM, replicate number 1, timepoint 0 hours; also: filed as whole numbers so only -1 and 0 and 1 occur
measurement-kind: Growth Rate
Would you mind answering with just the numeric figure?

Take a look at these entries with their results.
{"compound": "COc1cc(-n2cnc3cc(-c4ccc(Cl)cc4)sc3c2=O)ccc1OCCN1CCCC1", "endpoint-result": 0}
{"compound": "CN(C)CC#Cc1ccc(OCCCc2sc(N3CCc4cccc(C(=O)Nc5nc6ccccc6s5)c4C3)nc2C(=O)O)c(F)c1", "endpoint-result": 0}
{"compound": "Cn1cnc2c(F)c(Nc3ccc(Br)cc3Cl)c(C(=O)NOCCO)cc21", "endpoint-result": 1}

Ask: Provide Growth Rate value for the following compound: Cn1c(-c2csc(C3CCN(CC4=NC5N=CC=CC5N4)CC3)n2)nc2ccccc21 (configuration not stated)
Result: 0

Ask: Provide Growth Rate value for the following compound: `O=C(NCCCC1CCCCC1)c1ccc(CNC(=O)c2cnn(-c3ccccc3)c2C(F)(F)F)cc1`
Result: 0

Ask: Provide Growth Rate value for the following compound: `C[C@H](c1ccc(F)cc1)N(Cc1ccc(Cl)c(C(=O)O)c1)C(=O)c1cnc2ccccc2c1`
Result: 0

Ask: Provide Growth Rate value for the following compound: C[C@@H]1CCN(C(=O)CC#N)C[C@@H]1N(C)c1ncnc2[nH]ccc12.O=C(O)CC(O)(CC(=O)O)C(=O)O [TOFACITINIB CITRATE]
Result: 0
